Biological target: furin, P09958;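 also: purified furin at 1:10 enzyme:substrate in 50 mM HEPES pH 7.5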
Sequence (P09958 whole entry): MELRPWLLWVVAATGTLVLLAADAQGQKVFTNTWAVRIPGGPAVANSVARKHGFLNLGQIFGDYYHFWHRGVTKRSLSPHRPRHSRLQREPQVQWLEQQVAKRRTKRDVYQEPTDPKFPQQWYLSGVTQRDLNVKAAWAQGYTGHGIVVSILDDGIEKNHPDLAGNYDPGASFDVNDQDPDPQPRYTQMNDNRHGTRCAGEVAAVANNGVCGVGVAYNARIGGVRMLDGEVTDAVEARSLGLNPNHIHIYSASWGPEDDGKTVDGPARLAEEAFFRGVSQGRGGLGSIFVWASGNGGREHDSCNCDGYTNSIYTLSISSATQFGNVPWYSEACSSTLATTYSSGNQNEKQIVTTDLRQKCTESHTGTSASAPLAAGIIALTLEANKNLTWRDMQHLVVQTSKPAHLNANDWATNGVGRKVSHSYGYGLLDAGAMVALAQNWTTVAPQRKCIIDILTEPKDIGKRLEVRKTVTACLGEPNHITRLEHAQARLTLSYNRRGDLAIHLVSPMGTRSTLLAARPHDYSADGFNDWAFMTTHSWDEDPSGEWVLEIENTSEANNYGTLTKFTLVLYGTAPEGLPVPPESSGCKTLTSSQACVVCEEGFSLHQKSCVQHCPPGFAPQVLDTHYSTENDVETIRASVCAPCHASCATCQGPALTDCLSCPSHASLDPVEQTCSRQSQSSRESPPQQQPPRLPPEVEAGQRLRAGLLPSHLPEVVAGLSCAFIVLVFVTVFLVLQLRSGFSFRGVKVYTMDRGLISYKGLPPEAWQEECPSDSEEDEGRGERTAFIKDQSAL
Experiment: furin cleavage Z-score vs untreated control; higher = more cleavage, active = 3.5 or more, inactive = 1 or less, 8 variable residues between constant flanks
Conditions: 15 min
The other results are listed elsewhere or left out. How many sequences the whole screen found active is unknown.
Hello, when you answer, please use one of the following outcomes: Y (active), N (inactive)

Worked set:
- constructSequence: "CAHSKKKCDEAGNASASA [HC858]"
  qualitativeLabel: "N"
- constructSequence: "CARRKRHSEHAGNASASA [FS-3166]"
  qualitativeLabel: "Y"
- constructSequence: "CARARRSMDEAGNASASA [FS-2203]"
  qualitativeLabel: "Y"
- constructSequence: "CATTPCSGCWAGNASASA [HC1920]"
  qualitativeLabel: "N"

Now look at this entry.
Short answer needed: outcome of this test for CARRKRKKEVAGNASASA [FS-2296] ?
N

Every entry's value here was drawn from the supplement of paper PMC3545927.
